- ASSAY PROCEDURE: E. coli growth modulation, two-sided OD650, primary screen, E. coli filamentation project, strain DRC41, 24 h (AID 1093);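 also: MC1000 strain lacking acrAB efflux and sulA so SOS filamentation is blocked; test concentration not given here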
- CONDITION INFO: OD650, 24 h, higher = more signal, called active from +8 up or from −8 down
EXPERIMENTAL ENDPOINT: z-score
Give bare numbers.

Batch of 4 compounds: report z-score for each.
1. CCN1C(=O)[C@H]2[C@H]3[C@H](O)C=CC(=O)[C@@H]3CC[C@H]2C1=O
2. COc1ccc(O[C@H]2C=C[C@@H](c3ccccc3)O[C@@H]2COC(=O)CCC(C)=NOC(C)CN2CCCCc3nc(C)c(C)cc32)cc1 (some centres undefined)
3. C#C[C@@H]1Oc2ccccc2S(=O)(=O)N2CCC[C@H]12
4. C[C@@H]1CC[C@H]2C(=O)O[C@H](COc3ccc(C(C)(C)C)cc3)CN2[C@H]1c1ccc(Br)cc1

result:
[0.255, 1.14, -1.1, -0.756]

Origin of measurements: PubChem BioAssay
